Test: Chemical half-life was determined
metric: log10 half-life (log10 of the value in h)
On a log10 scale: recorded half-life, unit h.

Consider the following illustrative entries.
compound | log10 half-life
CC(C)N(C(=O)N(CCCl)N=O)C1CCCCC1 | 1.52
O=NN(CCCl)C(=O)NC1CCCCC1 [LOMUSTINE] | 0.32
CCN(C(=O)N(CCCl)N=O)C1CCCCC1 | 2.12

Q: Fill blank: measured log10 half-life of the compound CN(C(=O)N(CCCl)N=O)C1CCCCC1 is ____.
Result: 1.68

Q: Fill blank: measured log10 half-life of the compound CC(O)CN(C(=O)N(CCCl)N=O)C1CCCCC1 (stereo not drawn) is ____.
Result: 1.64

Q: Fill blank: measured log10 half-life of the compound C#CCN(C(=O)N(CCCl)N=O)C1CCCCC1 is ____.
Result: 1.89

Q: Fill blank: measured log10 half-life of the compound O=NN(CCCl)C(=O)N(C1CCCCC1)C1CCCCC1 is ____.
Result: 1.80

Q: Fill blank: measured log10 half-life of the compound CCCN(C(=O)N(CCCl)N=O)C1CCCCC1 is ____.
Result: 1.84

----------
Experiment: Partition coefficient (logD7.4)
Details: octanol/water, pH 7.4
As shown below, each of these molecules has a reported logD value.
Please reply with the number alone, leaving off any unit.

Consider the following illustrative entries.
molecule | logD
C=CCN(C(=O)NCCCl)C1CCCCC1 | 1.48
CC(O)CN(C(=O)NCCCl)C1CCCCC1 (centres undefined) | 0.37
CC(C)N(C(=O)NCCCl)C1CCCCC1 | 2.36
CN(C(=O)NCCCl)C1CCCCC1 | 1.41
CC(C)CN(C(=O)NCCCl)C1CCCCC1 | 1.93

Q: Fill blank: measured logD of the molecule CC(C)(C)N(C(=O)N(CCCl)N=O)C1CCCCC1 is ____.
Result: 2.46

Q: Fill blank: measured logD of the molecule CC(C)(C)N(C(=O)NCCCl)C1CCCCC1 is ____.
Result: 3.03

Q: Fill blank: measured logD of the molecule O=NN(CCCl)C(=O)NC1CCCCC1 is ____.
Result: 2.83

Q: Fill blank: measured logD of the molecule CC(C)N(C(=O)N(CCCl)N=O)C1CCCCC1 is ____.
Result: 1.78
